Molecular target: N-terminal Xaa-Pro-Lys N-methyltransferase 1 (Homo sapiens); further: nearly all actives have a fitted effect of over 80% in size
Test: qHTS Assay for Inhibitors of N-terminal methyltransferase 1 (NTMT1): ThioGlo3 Assay Confirmatory Screen, Round 1.
Details: NTMT1 SAHH-coupled ThioGlo3 fluorescence, 30 min; series mostly up to 56.8 µM
Results filed as inconclusive are left out. The source made the active and inactive calls. The call rests on the fitted dose curve; in most records, active means well fitted inhibition curve with a large enough effect; inconclusive means small, poorly fitted or top-dose-only effect; inactive means no such curve, though single readings can be large or run the other way.
Outcome field: choose from Yes (active), No (inactive)

Solved cases (5 shown):
MOLECULE	LABEL
Nc1ncnc2c1ncn2[C@@H]1O[C@H](COP(=O)(O)OP(=O)(O)OP(=O)(O)O)[C@@H](O)[C@H]1O	No
Nc1ncnc2c1ncn2[C@@H]1O[C@H](COP(=O)(O)OP(=O)(O)OP(=O)(O)OP(=O)(O)OC[C@@H]2O[C@H](n3cnc4c(N)ncnc43)[C@@H](O)C2O)C(O)[C@H]1O (stereo partly specified)	No
CNc1ncnc2c1ncn2[C@@H]1O[C@H](COP(=O)(O)O)[C@@H](O)[C@H]1O	No
Nc1ncnc2c1ncn2C1C[C@H](O)[C@@H](CO)O1 (stereo partly specified)	No
COc1cc2c(NC3CCN(C(C)C)CC3)nc(N3CCCN(C(C)C)CC3)nc2cc1OCCCN1CCCCC1	Yes

API: the following record is the query input.
### Prompt In this assay, the call recorded for "CC(C)N(CCCNC(=O)Nc1ccc(C(C)(C)C)cc1)C[C@H]1O[C@@H](n2cc(Br)c3c(N)ncnc32)[C@H](O)[C@@H]1O" was what?
### Response No

* * *

Molecular target: N-terminal Xaa-Pro-Lys N-methyltransferase 1 (Homo sapiens) (UniProt Q9BV86); further: nearly all actives have a fitted effect of over 80% in size
Sequence (Q9BV86 whole entry, looked up): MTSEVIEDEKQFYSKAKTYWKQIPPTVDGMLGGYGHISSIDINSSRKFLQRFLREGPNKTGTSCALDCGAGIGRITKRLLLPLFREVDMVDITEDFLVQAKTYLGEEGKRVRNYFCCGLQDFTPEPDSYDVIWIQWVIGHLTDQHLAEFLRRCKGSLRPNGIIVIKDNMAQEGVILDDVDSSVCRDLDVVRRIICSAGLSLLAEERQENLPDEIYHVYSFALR
Assay: qHTS Assay for Inhibitors of N-terminal methyltransferase 1 (NTMT1): ThioGlo3 Assay Confirmatory Screen, Round 1.
Conditions: NTMT1 SAHH-coupled ThioGlo3 fluorescence, 30 min; series mostly up to 56.8 µM
Inconclusive results are not listed. Calls of active or inactive are those of the source. The call rests on the fitted dose curve; in most records, active means well fitted inhibition curve with a large enough effect; inconclusive means small, poorly fitted or top-dose-only effect; inactive means no such curve, though single readings can be large or run the other way.
Outcome field: choose from active, inactive

Solved cases (5 shown):
COMPOUND	LABEL
COc1cc2c(NC3CCN(C(C)C)CC3)nc(N3CCCCCC3)nc2cc1OCCOCCN(C)C	active
CNC(=O)[C@H]1O[C@@H](n2cnc3c(N)ncnc32)[C@H](O)[C@@H]1O	inactive
C=C1OC(CO)(n2cnc3c(N)ncnc32)C(O)C1O (configuration not stated)	inactive
COc1cc2nc(N3CCN(C)CC3)nc(NCCN(C)C)c2cc1OC	active
OC[C@H]1O[C@@H](n2cnc3c(NC4CCCCC4)ncnc32)[C@H](O)[C@@H]1O	inactive

### Prompt In this assay, the call recorded for "COc1cc2c(NC3CCN(C)CC3)nc(N3CCCN(C)CC3)nc2cc1OCCCCCN" was what?
### Response active

### Prompt In this assay, the call recorded for "CCN1CCN(c2nc(NC3CC3)c3cc(OC)c(OC)cc3n2)CC1" was what?
### Response active

### Prompt In this assay, the call recorded for "CNc1nc(N2CCN(C)CC2)nc2cc(OC)c(OC)cc12" was what?
### Response active

### Prompt In this assay, the call recorded for OCC1OC(n2cnc3c(=S)nc[nH]c32)C(O)C1O (configuration not stated) was what?
### Response active

### Prompt In this assay, the call recorded for "COc1cc2c(NC3CCN(C)CC3)nc(N3CCCCC3)nc2cc1OCCOCCN1CCCC1" was what?
### Response active

### Prompt In this assay, the call recorded for "COc1cc2c(NC3CCN(C(C)C)CC3)nc(N3CCCN(C)CC3)nc2cc1OCCOCCN(C)C" was what?
### Response active

### Prompt In this assay, the call recorded for "COc1cc2nc(N3CCN(C)CC3)nc(N3CCOCC3)c2cc1OC" was what?
### Response active

* * *

Target: N-terminal Xaa-Pro-Lys N-methyltransferase 1 (Homo sapiens) (UniProt Q9BV86); further: nearly all actives have a fitted effect of over 80% in size
Assay: qHTS Assay for Inhibitors of N-terminal methyltransferase 1 (NTMT1): ThioGlo3 Assay Confirmatory Screen, Round 1.
Settings: NTMT1 SAHH-coupled ThioGlo3 fluorescence, 30 min; series mostly up to 56.8 µM
Results filed as inconclusive are left out. The source made the active and inactive calls. The call rests on the fitted dose curve; in most records, active means well fitted inhibition curve with a large enough effect; inconclusive means small, poorly fitted or top-dose-only effect; inactive means no such curve, though single readings can be large or run the other way.
Outcome field: choose from label 1 for active, label 0 for inactive

Solved cases (6 shown):
COMPOUND	LABEL
Nc1ccnc2c1ncn2[C@@H]1O[C@H](CO)[C@@H](O)[C@H]1O	label 1
CSc1nc(N)c2ncn([C@H]3O[C@H](COP(=O)(O)OP(=O)(O)O)[C@@H](O)[C@@H]3O)c2n1	label 0
COc1cc2c(NC3CCN(C)CC3)nc(N3CCCN(C)CC3)nc2cc1OCCCN1CCOCC1	label 1
Nc1ncnc2c1ncn2[C@@H]1O[C@H](CSCC[C@H](N)C(=O)O)[C@@H](O)[C@H]1O	label 0
OCC1OC(n2cnc3c(NO)ncnc32)C(O)C1O (configuration not stated)	label 1
COc1cc2c(NC3CCN(C)CC3)nc(N3CCCN(C)CC3)nc2cc1OCCCCCCN(C)C	label 1

### Prompt In this assay, the call recorded for "CCC(CC)n1ccc2c(C(=O)NCc3c(C)cc(C)[nH]c3=O)cc(C#N)cc21" was what?
### Response label 1

### Prompt In this assay, the call recorded for "OC[C@H]1O[C@@H](n2cnc3c(NCc4ccccc4)ncnc32)[C@H](O)[C@@H]1O" was what?
### Response label 0

### Prompt In this assay, the call recorded for "Nc1ncnc2c1ncn2[C@@H]1O[C@H](CO)C[C@@H]1O" was what?
### Response label 0

### Prompt In this assay, the call recorded for "COc1cc2nc(N3CC[C@H](N(C)C)C3)nc(NC3CC3)c2cc1OC" was what?
### Response label 0

### Prompt In this assay, the call recorded for "CCN(c1cc(-c2ccc(CN3CCOCC3)cc2)cc(C(=O)NCc2c(C)cc(C)[nH]c2=O)c1C)C1CCOCC1" was what?
### Response label 0

### Prompt In this assay, the call recorded for "COc1cc2c(NC3CCN(C)CC3)nc(N3CCN(C)CC3)nc2cc1OCCOCCN(C)C" was what?
### Response label 1

### Prompt In this assay, the call recorded for "COc1cc2c(NC3CCN(C(C)C)CC3)nc(N3CCC(F)(F)CC3)nc2cc1OCCCN1CCCCC1" was what?
### Response label 1

### Prompt In this assay, the call recorded for "COc1cc2nc(NC3CCN(Cc4ccccc4)CC3)nc(N3CCCN(C)CC3)c2cc1OC" was what?
### Response label 1

### Prompt In this assay, the call recorded for "CCN1CCCN(c2nc(NC3CCN(C(C)C)CC3)c3cc(OC)c(OCCCN4CCCCC4)cc3n2)CC1" was what?
### Response label 1

### Prompt In this assay, the call recorded for "Nc1ncnc2c1nc(N1CCCCC1)n2[C@@H]1O[C@@H]2COP(=O)(O)O[C@H]2[C@H]1O" was what?
### Response label 0

### Prompt In this assay, the call recorded for "COc1cc2c(NC3CCN(C)CC3)nc(N3CCCN(C)CC3)nc2cc1OCCCN1CCCCC1" was what?
### Response label 1

* * *

Target: N-terminal Xaa-Pro-Lys N-methyltransferase 1 (Homo sapiens) (UniProt Q9BV86); further: nearly all actives have a fitted effect of over 80% in size; further: potency means the concentration at half of the fitted maximal effect
Assay: qHTS Assay for Inhibitors of N-terminal methyltransferase 1 (NTMT1): ThioGlo3 Assay Confirmatory Screen, Round 1.
Conditions: NTMT1 SAHH-coupled ThioGlo3 fluorescence, 30 min; series mostly up to 56.8 µM
Results filed as inconclusive are left out. Activity calls are given as the source filed them. Calls come from the whole dose curve; as a rule, active = well fitted inhibition curve with a large enough effect; inconclusive = small, poorly fitted or top-dose-only effect; inactive = no such curve, though single readings can be large or run the other way.
PROPERTY MEASURED: Potency

COMPOUND	RESULT
OC[C@@H]1O[C@@H](n2cnc3c(NC4CCCC4)ncnc32)[C@H](O)[C@H]1O	inactive
COc1cc2c(NC3CCN(CC4CCCCC4)CC3)nc(N3CCCCCC3)nc2cc1OCCCN1CCCCC1	24.1 µM (active)
CSCC1OC(n2cnc3c(N)ncnc32)C(O)C1O (centres undefined)	inactive
OC[C@@H]1O[C@@H](n2cnc3c(N[C@H]4CCC[C@@H]4O)ncnc32)[C@H](O)[C@H]1O	inactive
COc1cc2c(NC3CCN(C(C)C)CC3)nc(N3CCCN(C(C)C)CC3)nc2cc1OCCCN1CCCC1	27.1 µM (active)
COc1cc2nc(N3CCN(C)CC3)nc(NC3CCN(Cc4ccccc4)CC3)c2cc1OC	24.1 µM (active)
CCCCC#Cc1nc(NC)c2ncn([C@@H]3O[C@@H](CO)[C@H](O)[C@H]3O)c2n1	inactive
N#Cc1ccc(COC[C@H]2O[C@@H](n3c(NCc4ccc(Cl)c(Cl)c4)nc4c(N)ncnc43)[C@@H](O)[C@@H]2O)cc1	inactive

Now let's try a different one.
### Prompt Indicate its recorded Potency; the compound in question is "COc1cc2c(NC3CCN(C)CC3)nc(N3CCCN(C)CC3)nc2cc1OCCN(C)C"
### Response 21.5 µM (active)

* * *

Biological target: N-terminal Xaa-Pro-Lys N-methyltransferase 1 (Homo sapiens); further: nearly all actives have a fitted effect of over 80% in size
Assay: qHTS Assay for Inhibitors of N-terminal methyltransferase 1 (NTMT1): ThioGlo3 Assay Confirmatory Screen, Round 1.
Settings: NTMT1 SAHH-coupled ThioGlo3 fluorescence, 30 min; series mostly up to 56.8 µM
Records with an inconclusive call do not appear. The source made the active and inactive calls. Calls come from the whole dose curve; as a rule, active = well fitted inhibition curve with a large enough effect; inconclusive = small, poorly fitted or top-dose-only effect; inactive = no such curve, though single readings can be large or run the other way.
Outcome field: choose from yes = active, no = inactive

MOLECULE	LABEL
CNc1nc2c(N)ncnc2n1[C@@H]1O[C@@H]2COP(=O)(O)O[C@H]2[C@H]1O	no
COc1cc2nc(N3CCCN(C)CC3)nc(N3CCN(C)CC3)c2cc1OC	yes
OCC1OC(n2cnc3c(NCc4ccco4)ncnc32)C(O)C1O (stereo not given)	yes
OC[C@H]1O[C@@H](n2cnc3c(Nc4ccccc4)ncnc32)[C@H](O)[C@@H]1O	no

### Prompt In this assay, the call recorded for "C[C@@H](Cc1ccccc1)Nc1ncnc2c1ncn2[C@@H]1O[C@H](CO)[C@@H](O)[C@H]1O" was what?
### Response no

### Prompt In this assay, the call recorded for "Nc1nc2c(ncn2[C@@H]2O[C@H](CO)[C@@H](O)[C@@H]2O)c(=O)[nH]1" was what?
### Response no

### Prompt In this assay, the call recorded for "COc1cc2c(NC3CCN(C)CC3)nc(N3CCCN(C)CC3)nc2cc1OCCCCN(C)C" was what?
### Response yes

### Prompt In this assay, the call recorded for "COc1cc2nc(N3CCN(C(N)=O)CC3)nc(NC3CC3)c2cc1OC" was what?
### Response yes

### Prompt In this assay, the call recorded for "Nc1nc(Cl)nc2c1ncn2[C@@H]1O[C@H](COP(=O)(O)OP(=O)(O)OP(=O)(O)O)[C@@H](O)[C@H]1O" was what?
### Response no

### Prompt In this assay, the call recorded for "COc1cc2c(NC3CCN(CC4CCCCC4)CC3)nc(N3CCCN(C(C)C)CC3)nc2cc1OCCCN1CCCCC1" was what?
### Response yes
